These measurements were taken from PubChem BioAssay (EPA / NIEHS).

# Read-out: urokinase plasminogen activator (uPA), PLAU (gene 5328)
# method: BSK_BE3C_uPA: BioMAP Diversity Plus: BE3C Assay for urokinase plasminogen activator (uPA) Biomarker Activity (AID 2283038)
# measurement_parameters: primary human bronchial epithelial cells; actives raise or lower the signal
Calls of active or inactive are those of the source. How the source made its calls: active means hit-call score of the fitted dose curve at least 0.9, where 1 is the maximum; inactive means score below 0.9.
Thanks in advance; please answer with one of these: y (active), n (inactive)

CCCCCCCCCCCCCCCS(=O)(=O)Oc1ccccc1: n

**Query** Give the logged outcome of this assay for the following molecule: CCc1ccc(CCOc2ccc(CC3SC(=O)NC3=O)cc2)nc1 (stereo unspecified)
**Result** n

**Query** Name the outcome recorded for N#C[C@@H]1CC(F)(F)CN1C(=O)CNC1CC2CCC(C1)N2c1ncccn1 (stereo partly specified) in the assay.
**Result** n

**Query** GET /call?item= O=c1c(-c2ccc(O)cc2)coc2cc(O)ccc12 returns the recorded outcome of this test.
**Result** n

**Query** Write down the call the test reported for this molecule. Item: ClC1=C(Cl)C(Cl)(Cl)C(Cl)=C1Cl
**Result** y

**Query** Look up the recorded call for O=C(O)c1ccccc1C(c1ccc(O)cc1)c1ccc(O)cc1 in this test.
**Result** n

====

# Read-out: MYC, MYC (gene 4609)
# method: LTEA_HepaRG_MYC: Life Technologies and Expression Analysis (LTEA) Assay for MYC using HepaRG (AID 2283518)
# measurement_parameters: mRNA level, 48 h; actives raise or lower the signal
Activity calls are given as the source filed them. How the source made its calls: active means hit-call score of the fitted dose curve at least 0.9, where 1 is the maximum; inactive means score below 0.9.
recorded_metric: AC50

CCCOC(=O)c1ccc(O)cc1: inactive
CC(=O)CC(C)(C)O: 0.118 µM (active)
Cc1oc(-c2ccccc2)nc1CCOc1ccc(C[C@H](Nc2ccccc2C(=O)c2ccccc2)C(=O)O)cc1: 12.5 µM (active)
O=c1c(-c2ccc(O)cc2)coc2cc(O)ccc12: inactive
CCCCCCC(=O)O: inactive

**Query** Item under review: CCC(C)(C)C1CCC(O)CC1 (configuration not stated) . Reported AC50?
**Result** inactive

**Query** # input compound: c1ccc2c(c1)ccc1ccccc12 ; wanted: its AC50
**Result** inactive

====

# method: ATG_M_19_TRANS: Attagene TRANS-FACTORIAL HepG2 Assay for M19 Transcription Factor (Internal Marker) (AID 2282974)
# measurement_parameters: HepG2 Attagene TRANS-FACTORIAL M19 internal marker reporter
Inconclusive results are not listed. Calls of active or inactive are those of the source. The calls were made as follows: active = hit-call score of the fitted dose curve at least 0.9, where 1 is the maximum; inconclusive = response in the unintended direction; inactive = score below 0.9.
recorded_metric: outcome

C[C@@H]1C[C@H]2[C@@H]3CCC4=CC(=O)C=C[C@]4(C)[C@@]3(F)[C@@H](O)C[C@]2(C)[C@@]1(O)C(=O)COP(=O)(O)O: inactive
COc1cc(CCC(=O)CC(=O)CCc2ccc(O)c(OC)c2)ccc1O: inactive
O=C(O)Cc1cc(I)c(Oc2cc(I)c(O)c(I)c2)c(I)c1: inactive
CCCCCCCCCCCCN1CCCC1=O: inactive
CCOC(=O)CC(O)(CC(=O)OCC)C(=O)OCC: inactive
O=C(O)c1ccccc1C(c1ccc(O)cc1)c1ccc(O)cc1: inactive

**Query** Tell me the measured outcome of CC#C[C@]1(O)CC[C@H]2[C@@H]3CCC4=CC(=O)CCC4=C3[C@@H](c3ccc(N(C)C)cc3)C[C@@]21C , please.
**Result** inactive

**Query** Find the recorded outcome belonging to O=C(OCCOCCOC(=O)c1ccccc1)c1ccccc1 and report it.
**Result** inactive

**Query** Please report the recorded outcome for CCCCCCCCC(=O)O .
**Result** inactive

**Query** Field request: outcome | item: OCCC(F)(F)C(F)(F)C(F)(F)C(F)(F)C(F)(F)C(F)(F)C(F)(F)C(F)(F)F
**Result** inactive

====

# Read-out: E-selectin (Homo sapiens) (UniProt P16581)
# Sequence (P16581 whole entry, looked up): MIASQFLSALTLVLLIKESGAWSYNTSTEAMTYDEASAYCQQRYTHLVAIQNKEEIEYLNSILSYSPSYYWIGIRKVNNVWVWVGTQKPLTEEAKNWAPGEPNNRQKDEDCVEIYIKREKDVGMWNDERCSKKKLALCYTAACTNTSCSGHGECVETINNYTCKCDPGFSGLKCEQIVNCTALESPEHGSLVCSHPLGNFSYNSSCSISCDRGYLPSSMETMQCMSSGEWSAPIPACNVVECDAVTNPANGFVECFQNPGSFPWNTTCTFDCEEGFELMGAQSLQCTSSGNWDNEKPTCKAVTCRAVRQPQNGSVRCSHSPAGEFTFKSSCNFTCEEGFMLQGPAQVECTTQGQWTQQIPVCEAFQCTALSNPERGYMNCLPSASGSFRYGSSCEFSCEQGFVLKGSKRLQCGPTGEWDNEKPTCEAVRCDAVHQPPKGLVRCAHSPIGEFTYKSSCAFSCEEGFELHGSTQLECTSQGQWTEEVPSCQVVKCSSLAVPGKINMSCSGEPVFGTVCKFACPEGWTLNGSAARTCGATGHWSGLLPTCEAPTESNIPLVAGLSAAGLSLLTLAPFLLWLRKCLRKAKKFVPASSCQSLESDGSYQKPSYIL
# method: BSK_3C_Eselectin: BioMAP Diversity Plus: 3C Assay for Eselectin Biomarker Activity (AID 2283015)
# measurement_parameters: primary human endothelial cells (HUVEC); actives raise or lower the signal
Calls of active or inactive are those of the source. Rule for the calls: active = hit-call score of the fitted dose curve at least 0.9, where 1 is the maximum; inactive = score below 0.9.
recorded_metric: AC50

CCN(CC)CCNc1ccc(CNC=O)c2sc3ccc(OC)cc3c(=O)c12: 27.3 µM (active)
CCc1ccc(CCOc2ccc(CC3SC(=O)NC3=O)cc2)nc1 (stereo unspecified): inactive
CCCCCCCCC(=O)O: inactive
C=C(C)C(=O)OCCC(F)(F)C(F)(F)C(F)(F)C(F)(F)C(F)(F)C(F)(F)F: inactive
CCCCC(CC)COC(=O)CCCCC(=O)OCc1ccccc1 (stereo unspecified): inactive
CC1=C(/C=C/C(C)=C/C=C/C(C)=C/C(=O)O)C(C)(C)CCC1: 20 µM (active)
CC(=O)CC(C)(C)O: inactive
CCCCOCCO: inactive
CC[C@H](C)[C@@H](C(=O)O)n1sc2ccccc2c1=O: inactive
C#C[C@]1(O)CC[C@H]2[C@@H]3CCC4=CC(=O)CC[C@@H]4[C@H]3CC[C@@]21C: 11.5 µM (active)

Consider the additional molecule presented here.
**Query** Could you tell me which AC50 is on file for CCOC(=O)CC(O)(CC(=O)OCC)C(=O)OCC ?
**Result** inactive

====

# measured_on: human Protein Tyrosine Phosphatase Non-receptor Type 4 (PTPN4), PTPN4 (gene 5775)
# method: NVS_ENZ_hPTPN4: NovaScreen (NVS) Enzymatic Assay for human Protein Tyrosine Phosphatase Non-receptor Type 4 (PTPN4) (AID 2283208)
Records with an inconclusive call do not appear. Calls of active or inactive are those of the source. The calls were made as follows: active = hit-call score of the fitted dose curve at least 0.9, where 1 is the maximum; inconclusive = response in the unintended direction; inactive = score below 0.9.
Just give me one of these, please: T = active, F = inactive

Here's what some known entries look like.
N#C[C@@H]1CC(F)(F)CN1C(=O)CNC1CC2CCC(C1)N2c1ncccn1 (some centres undefined): F
CCCCCCCCCCCCc1ccccc1S(=O)(=O)O: T
CC[C@H](C)[C@@H](C(=O)O)n1sc2ccccc2c1=O: F

**Query** For COCC(C)OCC(C)O (centres undefined) , which call appears in the assay record?
**Result** F

====

# method: Tanguay_ZF_120hpf_CIRC_legacy: (Legacy) Oregon State University Tanguay Lab 120 Hour Post-fertilization zebrafish Assay for Circulatory Malformation (AID 2283651)
Results filed as inconclusive are left out. Calls of active or inactive are those of the source. Rule for the calls: active = hit-call score of the fitted dose curve at least 0.9, where 1 is the maximum; inconclusive = response in the unintended direction; inactive = score below 0.9.
Hello, when you answer, please use one of the following outcomes: 1 (yes) = active, 0 (no) = inactive

Take a look at these entries with their results.
N#C[C@@H]1CC(F)(F)CN1C(=O)CNC1CC2CCC(C1)N2c1ncccn1 (stereo not given in full): 0 (no)
CN(C)C=O: 0 (no)
Cc1cc(CCN2CCN(c3nsc4ccccc34)CC2)cc2c1NC(=O)CC2(C)C: 1 (yes)
CCOC(=O)CC(O)(CC(=O)OCC)C(=O)OCC: 0 (no)
CCCCOCCO: 0 (no)

**Query** For Oc1cc2ccccc2c2ccccc12 , what call appears in the results of this test?
**Result** 1 (yes)

**Query** I would be grateful if you could indicate the recorded call for CC(=O)NC1(c2cccc(F)c2)CCN(CC[C@@]2(c3ccc(Cl)c(Cl)c3)CN(c3ccccc3)C(=O)CO2)CC1 .
**Result** 0 (no)

**Query** I'd appreciate the recorded outcome for CC[C@H](c1ccc(O)cc1)[C@@H](CC)c1ccc(O)cc1 from this test.
**Result** 0 (no)

**Query** Just curious, what result did CC(C)(C)c1ccc(O)c(C(C)(C)C)c1 get here?
**Result** 0 (no)

**Query** Can you look up the reported call for CC(C)CCCCCCOC(=O)CCCCC(=O)OCCCCCCC(C)C for me?
**Result** 0 (no)

====

# Read-out: Cytochrome P450 (CYP24A1), CYP24A1 (gene 1591)
# method: LTEA_HepaRG_CYP24A1: Life Technologies and Expression Analysis (LTEA) Assay for Cytochrome P450 (CYP24A1) using HepaRG (AID 2283478)
# measurement_parameters: mRNA level, 48 h; actives raise or lower the signal
# Procedure: LTEA_HepaRG is a cell based, multiplexed-readout assay that uses HepaRG, a human liver cell line, with measurements taken at 48 hours after chemical dosing on a 96-well plate.LTEA_HepaRG_CYP24A1 is one of 102 assay component(s) measured in the LTEA HepaRG cell culture assay. It is a marker of NR mediated metabolism.Data from the assay component LTEA_HepaRG_CYP24A1 was analyzed into 1 endpoint. […]
Calls of active or inactive are those of the source. How the source made its calls: active means hit-call score of the fitted dose curve at least 0.9, where 1 is the maximum; inactive means score below 0.9.
recorded_metric: outcome

Solved cases (4 shown):
OCCC(F)(F)C(F)(F)C(F)(F)C(F)(F)C(F)(F)C(F)(F)C(F)(F)C(F)(F)F: inactive
CC#C[C@]1(O)CC[C@H]2[C@@H]3CCC4=CC(=O)CCC4=C3[C@@H](c3ccc(N(C)C)cc3)C[C@@]21C: inactive
CCCCCCCC(=O)O: inactive
CCOC(=O)CC(O)(CC(=O)OCC)C(=O)OCC: inactive

**Query** Sample CCc1nn(C2CCCCC2)c2cc(C3(C#N)CCC(C(=O)O)CC3)ccc12 (stereo not given) — what was its outcome?
**Result** inactive
